Target: T1, recombinant LILRA1 ECD (human, UniProt O75019 17-461)
T1 construct: whole canonical entry named; also called LILA1
T1 sequence (O75019 17-461 limits assumed): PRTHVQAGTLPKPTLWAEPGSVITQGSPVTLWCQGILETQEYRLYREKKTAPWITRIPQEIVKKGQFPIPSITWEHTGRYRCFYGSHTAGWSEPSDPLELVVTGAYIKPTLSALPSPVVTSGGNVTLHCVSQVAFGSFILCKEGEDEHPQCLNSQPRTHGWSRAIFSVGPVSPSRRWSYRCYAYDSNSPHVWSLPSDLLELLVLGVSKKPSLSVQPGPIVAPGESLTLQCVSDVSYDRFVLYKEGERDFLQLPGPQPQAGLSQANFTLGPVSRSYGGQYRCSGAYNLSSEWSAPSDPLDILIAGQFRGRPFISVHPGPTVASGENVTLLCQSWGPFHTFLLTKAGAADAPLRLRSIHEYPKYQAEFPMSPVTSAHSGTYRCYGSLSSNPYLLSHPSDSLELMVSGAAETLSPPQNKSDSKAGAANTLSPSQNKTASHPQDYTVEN
Assay: BLI, IgG on AHC sensor, ECD in solution
Some binders, each annotated with its measured log10(Kd).
MEASURED PROPERTY: log10(Kd) (log10 of the value in nM)

>  <BINDER>
A-010 (antibody, V domains shown) VH: QVQLVQSGAEVKKPGSSVKVSCKASGGTFQSQAFAWVRQAPGQGLEWMGSIIPGFSTANYAQKFQGRVTITADESTSTAYMELSSLRSEDTAVYYCAKDLGTYSSGWPYYYGMDVWGQGTTVTVSS VL: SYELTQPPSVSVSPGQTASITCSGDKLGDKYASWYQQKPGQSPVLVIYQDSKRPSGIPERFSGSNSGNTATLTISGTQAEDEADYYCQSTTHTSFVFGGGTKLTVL

>  <log10(Kd)>
2.88

$$$$
>  <BINDER>
A-004 (antibody, V domains shown, tested as IgG) VH: QVQLVQSGAEVKKPGSSVKVSCKASGGTFRTKAIAWVRQAPGQGLEWMGGIIPIFSTANYAPKFQGRVTITADESTSTAYMELSSLRSEDTAVYYCAKDLGTYSSGWPYYYGMDVWGQGTTVTVSS VL: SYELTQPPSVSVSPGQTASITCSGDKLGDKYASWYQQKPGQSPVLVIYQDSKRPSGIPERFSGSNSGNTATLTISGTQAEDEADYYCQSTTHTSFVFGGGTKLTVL

>  <log10(Kd)>
2.76

$$$$
>  <BINDER>
A-013 (antibody, V domains shown, tested as IgG) VH: QVQLVQSGAEVKKPGSSVKVSCKASGGTFRQEAFSWVRQAPGQGLEWMGSIIPIFYSSNYAQKFQGRVTITADESTSTAYMELSSLRSEDTAVYYCAKDLGTYSSGWPYYYGMDVWGQGTTVTVSS VL: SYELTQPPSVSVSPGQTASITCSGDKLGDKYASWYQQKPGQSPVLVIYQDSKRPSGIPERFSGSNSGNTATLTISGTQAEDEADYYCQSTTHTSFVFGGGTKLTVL

>  <log10(Kd)>
3.03

$$$$
>  <BINDER>
A-011 (antibody, V domains shown, tested as IgG) VH: QVQLVQSGAEVKKPGSSVKVSCKASGGSFSHSAFSWVRQAPGQGLEWMGSIIPAFYTANYAQKFQGRVTITADESTSTAYMELSSLRSEDTAVYYCAKDLGTYSSGWPYYYGMDVWGQGTTVTVSS VL: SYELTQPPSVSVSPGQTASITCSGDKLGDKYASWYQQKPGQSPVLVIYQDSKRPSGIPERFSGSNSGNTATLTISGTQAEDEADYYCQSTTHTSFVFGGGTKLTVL

>  <log10(Kd)>
2.67

$$$$
>  <BINDER>
A-025 (antibody, V domains shown, tested as IgG) VH: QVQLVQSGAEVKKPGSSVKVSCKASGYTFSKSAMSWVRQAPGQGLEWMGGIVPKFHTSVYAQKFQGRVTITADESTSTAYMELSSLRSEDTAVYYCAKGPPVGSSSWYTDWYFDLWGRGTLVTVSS VL: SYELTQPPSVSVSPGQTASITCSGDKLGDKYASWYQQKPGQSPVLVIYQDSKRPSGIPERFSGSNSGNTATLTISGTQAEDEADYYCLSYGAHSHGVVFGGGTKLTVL

>  <log10(Kd)>
1.85

$$$$
